Source: ChEMBL document CHEMBL4184331

Each entry below carries its reported pKi.
- TGT: Glucocorticoid receptor (Homo sapiens, UniProt P04150)
- Sequence (P04150 whole entry): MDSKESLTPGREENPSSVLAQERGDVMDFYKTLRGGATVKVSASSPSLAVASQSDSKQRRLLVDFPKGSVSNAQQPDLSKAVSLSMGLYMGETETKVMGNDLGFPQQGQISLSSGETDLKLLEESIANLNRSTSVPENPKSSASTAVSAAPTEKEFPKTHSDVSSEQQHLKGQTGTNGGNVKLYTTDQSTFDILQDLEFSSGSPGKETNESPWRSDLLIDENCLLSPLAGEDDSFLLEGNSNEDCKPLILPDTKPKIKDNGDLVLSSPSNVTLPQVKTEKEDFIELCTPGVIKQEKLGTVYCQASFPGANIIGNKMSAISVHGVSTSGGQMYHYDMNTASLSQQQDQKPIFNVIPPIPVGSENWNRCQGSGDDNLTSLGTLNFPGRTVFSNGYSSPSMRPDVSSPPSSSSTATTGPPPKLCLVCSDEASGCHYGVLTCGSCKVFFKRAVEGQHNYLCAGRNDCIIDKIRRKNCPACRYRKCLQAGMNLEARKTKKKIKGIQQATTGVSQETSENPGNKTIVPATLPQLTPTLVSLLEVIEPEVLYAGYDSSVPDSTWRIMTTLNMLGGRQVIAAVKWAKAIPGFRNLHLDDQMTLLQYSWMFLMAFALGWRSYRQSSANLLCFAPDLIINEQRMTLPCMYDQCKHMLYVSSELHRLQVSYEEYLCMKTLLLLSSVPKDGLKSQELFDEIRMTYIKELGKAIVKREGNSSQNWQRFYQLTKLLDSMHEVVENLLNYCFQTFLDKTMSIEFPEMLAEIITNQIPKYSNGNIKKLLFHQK
pKi: −log10 of the molar value.
MEASURED ATTRIBUTE: pKi

[[record]]
sample_smiles = "C[C@]12C=CC(=O)C=C1[C@@H](F)C[C@H]1[C@@H]3C[C@H]4CN(Cc5ccc(CSc6ccc(O)cc6)cc5)C[C@@]4(C(=O)CO)[C@@]3(C)C[C@H](O)[C@@]12F"
measured_attribute = "pKi"
reported_measurement = 9.21

[[record]]
sample_smiles = "Cc1ccc(CN2C[C@@H]3C[C@H]4[C@@H]5C[C@H](F)C6=CC(=O)C=C[C@]6(C)[C@@]5(F)[C@@H](O)C[C@]4(C)[C@]3(C(=O)CO)C2)cc1"
measured_attribute = "pKi"
reported_measurement = 9.28

[[record]]
sample_smiles = "C[C@]12C=CC(=O)C=C1[C@@H](F)C[C@H]1[C@@H]3C[C@H]4CN(Cc5ccccc5)C[C@@]4(C(=O)NCc4ccccc4)[C@@]3(C)C[C@H](O)[C@@]12F"
measured_attribute = "pKi"
reported_measurement = 8.01

[[record]]
sample_smiles = "CC(=O)[C@@]12CN(Cc3cccc(Cl)c3)C[C@@H]1C[C@H]1[C@@H]3C[C@H](F)C4=CC(=O)C=C[C@]4(C)[C@@]3(F)[C@@H](O)C[C@@]12C"
measured_attribute = "pKi"
reported_measurement = 9.24

[[record]]
sample_smiles = "C[C@]12C=CC(=O)C=C1[C@@H](F)C[C@H]1[C@@H]3C[C@H]4CN(c5ccccc5)C[C@@]4(C(=O)CF)[C@@]3(C)C[C@H](O)[C@@]12F"
measured_attribute = "pKi"
reported_measurement = 9.28

